molecular target: Glutamate NMDA receptor; GRIN1/GRIN2A (Homo sapiens, UniProt Q05586+Q12879); experiment: Inhibitory activity against Xenopus laevis oocyte expressing 1A/2A heteromeric human NMDA (hNMDA) receptor
Sequence (Q12879 whole entry, other chains not shown): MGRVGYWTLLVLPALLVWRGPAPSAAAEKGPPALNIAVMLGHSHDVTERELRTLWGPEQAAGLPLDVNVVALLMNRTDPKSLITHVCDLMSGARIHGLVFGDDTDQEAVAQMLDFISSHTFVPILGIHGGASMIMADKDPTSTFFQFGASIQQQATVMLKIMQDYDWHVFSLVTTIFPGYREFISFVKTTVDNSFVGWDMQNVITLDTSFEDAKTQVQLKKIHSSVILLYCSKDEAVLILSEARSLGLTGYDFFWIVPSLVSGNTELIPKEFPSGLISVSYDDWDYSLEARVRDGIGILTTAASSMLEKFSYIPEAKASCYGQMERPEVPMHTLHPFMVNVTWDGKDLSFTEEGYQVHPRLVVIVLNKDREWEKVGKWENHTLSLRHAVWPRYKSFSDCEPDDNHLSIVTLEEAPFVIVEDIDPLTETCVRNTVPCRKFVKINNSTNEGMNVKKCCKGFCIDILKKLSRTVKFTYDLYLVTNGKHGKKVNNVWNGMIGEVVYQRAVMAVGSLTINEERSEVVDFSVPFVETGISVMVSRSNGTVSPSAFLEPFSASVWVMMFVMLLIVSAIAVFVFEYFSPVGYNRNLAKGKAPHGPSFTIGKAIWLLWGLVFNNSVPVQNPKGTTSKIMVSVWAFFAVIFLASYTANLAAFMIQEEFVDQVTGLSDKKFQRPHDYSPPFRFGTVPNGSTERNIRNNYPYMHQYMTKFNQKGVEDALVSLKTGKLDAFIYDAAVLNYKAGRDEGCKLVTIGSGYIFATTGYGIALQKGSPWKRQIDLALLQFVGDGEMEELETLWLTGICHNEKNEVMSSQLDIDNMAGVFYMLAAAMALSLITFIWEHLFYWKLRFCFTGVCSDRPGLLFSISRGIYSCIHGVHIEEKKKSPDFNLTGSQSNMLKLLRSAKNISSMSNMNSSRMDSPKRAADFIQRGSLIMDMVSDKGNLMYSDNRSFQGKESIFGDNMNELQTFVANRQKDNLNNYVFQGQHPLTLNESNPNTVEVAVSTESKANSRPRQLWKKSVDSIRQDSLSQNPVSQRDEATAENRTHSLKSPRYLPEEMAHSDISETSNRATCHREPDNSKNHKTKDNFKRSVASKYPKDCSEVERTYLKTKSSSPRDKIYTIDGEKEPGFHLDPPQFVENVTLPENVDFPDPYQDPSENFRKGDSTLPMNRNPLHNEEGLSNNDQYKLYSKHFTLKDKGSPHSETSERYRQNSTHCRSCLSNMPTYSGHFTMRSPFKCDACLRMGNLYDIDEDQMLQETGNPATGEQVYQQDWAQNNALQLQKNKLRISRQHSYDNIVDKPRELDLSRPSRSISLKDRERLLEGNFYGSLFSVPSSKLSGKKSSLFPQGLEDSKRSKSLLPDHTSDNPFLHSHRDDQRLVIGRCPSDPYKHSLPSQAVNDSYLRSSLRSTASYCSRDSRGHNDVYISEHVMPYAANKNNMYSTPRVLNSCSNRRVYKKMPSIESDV
Criterion: IC50 strictly less than 40 nM. Met: class 1. Not met: class 0.

>  <molecule>
O=P(O)(O)Cc1cc(-c2ccc(Cl)cc2)cc2nc(O)c(O)nc12

>  <class>
class 1

$$$$
>  <molecule>
CNC(c1cccc2nc(O)c(O)nc12)P(=O)(O)O (stereo not drawn)

>  <class>
class 0

$$$$
>  <molecule>
C[C@H](NC(c1cccc2nc(O)c(O)nc12)P(=O)(O)O)c1cccc2ccccc12 (stereo partly drawn)

>  <class>
class 0

$$$$
>  <molecule>
O=P(O)(O)C(O)c1cccc2nc(O)c(O)nc12 (stereo not drawn)

>  <class>
class 1

$$$$
>  <molecule>
O=P(O)(O)C(NC(c1ccccc1)c1ccccc1)c1cccc2nc(O)c(O)nc12 (stereo not drawn)

>  <class>
class 0

$$$$
>  <molecule>
C[C@H](NC(c1cccc2nc(O)c(O)nc12)P(=O)(O)O)c1ccccc1 (stereo partly drawn)

>  <class>
class 1

$$$$
>  <molecule>
CC(=O)N(C)C(c1cccc2nc(O)c(O)nc12)P(=O)(O)O (stereo not drawn)

>  <class>
class 0

$$$$

* * *

target: Glutamate NMDA receptor; GRIN1/GRIN2A (Homo sapiens, UniProt Q05586+Q12879); experiment: Inhibitory activity against Xenopus laevis oocyte expressing 1A/2A heteromeric human NMDA (hNMDA) receptor
log10 IC50: recorded values
property: log10 IC50 (log10 of the value in nM)

>  <molecule>
C[C@@H](NC(c1cccc2nc(O)c(O)nc12)P(=O)(O)O)c1ccccc1 (stereo not given in full)

>  <property>
log10 IC50

>  <measurement>
1.70

$$$$
>  <molecule>
O=P(O)(O)C(N[C@H]1CCc2ccccc21)c1cccc2nc(O)c(O)nc12 (stereo not given in full)

>  <property>
log10 IC50

>  <measurement>
1.78

$$$$
>  <molecule>
CCCNC(c1cc([N+](=O)[O-])cc2nc(O)c(O)nc12)P(=O)(O)O.Cl (stereo not given)

>  <property>
log10 IC50

>  <measurement>
1.95

$$$$
>  <molecule>
Br.CP(=O)(O)C(NCc1ccccc1)c1cc([N+](=O)[O-])cc2nc(O)c(O)nc12 (stereo not given)

>  <property>
log10 IC50

>  <measurement>
2.30

$$$$
>  <molecule>
O=P(O)(O)C(Nc1ccccc1)c1cccc2nc(O)c(O)nc12 (stereo not given)

>  <property>
log10 IC50

>  <measurement>
2.69

$$$$
>  <molecule>
Br.O=P(O)(O)C(NCc1ccccc1)c1cccc2nc(O)c(O)nc12 (stereo not given)

>  <property>
log10 IC50

>  <measurement>
0.62

$$$$
>  <molecule>
CN(Cc1ccccc1)C(c1cccc2nc(O)c(O)nc12)P(=O)(O)O (stereo not given)

>  <property>
log10 IC50

>  <measurement>
2.78

$$$$
>  <molecule>
C[C@H](NC(c1cccc2[nH]c(=O)c(=O)[nH]c12)P(=O)(O)O)c1ccc(Br)cc1 (stereo not given in full)

>  <property>
log10 IC50

>  <measurement>
2.43

$$$$
>  <molecule>
Br.O=[N+]([O-])c1cc(C(NCc2ccccc2)P(=O)(O)Cc2ccccc2)c2nc(O)c(O)nc2c1 (stereo not given)

>  <property>
log10 IC50

>  <measurement>
1.70

$$$$
>  <molecule>
COC(=O)NC(c1cc([N+](=O)[O-])cc2nc(O)c(O)nc12)P(=O)(O)O (stereo not given)

>  <property>
log10 IC50

>  <measurement>
2.04

$$$$
